experiment: NCI Yeast Anticancer Drug Screen. Data for the bub3 strain (AID 167); conditions: S. cerevisiae bub3 mutant strain, at 50.0 µM
This is part of a sample that, as a whole, favours compounds with a hit. Of some 79,000 tested, about 15% had one in any assay. Active and inactive are the calls of the source. Rule as the data show it: active = growth inhibition above about 70%; inactive = the rest.
Outcome codes: True for active, False for inactive

compound=COc1ccc(C(CCOS(=O)(=O)c2ccc(Br)cc2)(c2ccc(OC)cc2)c2ccc(OC)cc2)cc1 cat=False
compound=O=C1c2ccsc2C(=O)c2sc(CO)cc21 cat=True
compound=NC(=S)c1ccccc1N=Cc1cccs1 cat=False
compound=O=C1C(c2ccccc2)=C(c2ccccc2)c2ccccc21 cat=False
compound="CC1(CC2(c3ccccc3)NC(=O)NC2=O)NC(=O)NC1=O (stereo not given)" cat=False
compound="CCOC1CN=C(Nc2cccc3ccccc23)S1 (stereo not given)" cat=False
compound=Cc1nc(C)c(N2CCN(C#N)CC2)c(=O)[nH]1 cat=False
compound="COc1ccc(C(c2cc3c(cc2O)OCO3)N2CCCCC2)c(OC)c1 (stereo not given)" cat=False
compound=Cc1nc2cccc3ccc4cc5ccccc5c1c4c32 cat=False
compound=CCN(CC)CCCC#N cat=False
compound=CCCCCC(=O)OC cat=False
compound=O=[N+]([O-])/C(C(Cl)=C(Cl)Cl)=C(\SCc1ccccc1)N1CCCCC1 cat=False
compound="CCC1(CC)SCC(C)(O)NC1=O (stereo not given)" cat=False
compound=O=C1C2=C(CCC2)C(=O)N1c1ccc(N2C(=O)C3=C(CCC3)C2=O)cc1 cat=False
compound="C[N+]12CCCCC1CC2 (stereo not given)" cat=False
compound=Cc1nn(-c2ccccc2)c(SC(C)(C)C)c1C=NCCN=Cc1c(C)nn(-c2ccccc2)c1SC(C)(C)C cat=False
compound=CN(C)CCCn1cnc2cc(Cl)c(Cl)cc21 cat=False
compound=O=C(CS(=O)(=O)Cc1ccccc1)N1CCOCC1 cat=False
compound="CCOc1ccc(C2Oc3c(cccc3OC)C=C2[N+](=O)[O-])cc1OCC (stereo not given)" cat=False
compound=Nc1ncc(Cl)cn1 cat=False
compound="CCC(N)(C(=O)O)C(C)C (stereo not given)" cat=False
compound=COc1ccc(/C=C\c2cc(OC)c(OC)c(OC)c2)cc1OC cat=False
compound=Cc1ccc(OC(=O)c2ccc([N+](=O)[O-])cc2)cc1C(C)C cat=False
compound=COC(=O)c1c2c(cc3c1CC1(Cc4ccccc4C1)C3)CCC2 cat=False
compound="CS(C)=O.[Cl-].[Cl-].[NH-]CC(O)C[N-]CC(O)CN.[Pt+4] (stereo not given)" cat=False
